# tested.target: UniProt:P97612
# Sequence (P97612 whole entry): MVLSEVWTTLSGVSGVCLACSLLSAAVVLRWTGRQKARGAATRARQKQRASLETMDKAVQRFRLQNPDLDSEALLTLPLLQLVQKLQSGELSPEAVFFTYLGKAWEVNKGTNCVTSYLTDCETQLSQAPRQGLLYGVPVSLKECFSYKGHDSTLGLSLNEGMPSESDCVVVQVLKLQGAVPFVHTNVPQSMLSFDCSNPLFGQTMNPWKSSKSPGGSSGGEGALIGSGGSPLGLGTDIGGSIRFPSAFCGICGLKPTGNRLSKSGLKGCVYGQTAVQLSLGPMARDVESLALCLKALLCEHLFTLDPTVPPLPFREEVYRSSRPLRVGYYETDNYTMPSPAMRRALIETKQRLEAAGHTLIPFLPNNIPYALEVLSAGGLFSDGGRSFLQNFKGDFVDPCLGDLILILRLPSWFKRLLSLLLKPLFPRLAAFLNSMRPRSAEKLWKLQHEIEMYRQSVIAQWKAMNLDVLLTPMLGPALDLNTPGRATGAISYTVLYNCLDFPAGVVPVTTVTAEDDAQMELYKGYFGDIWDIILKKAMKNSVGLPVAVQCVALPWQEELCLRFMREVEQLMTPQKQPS
# test.name: Inhibition of rat FAAH incubated 3 hrs prior to addition of arachidonyl-amino-methyl-coumarin amide
parameter.measured: IC50 (nM)
Please respond with the number in nM and leave the unit unwritten.

Using the record for O=C(N1CCCCC1)N1CC(O[C@@H](c2ccc(Cl)cc2)c2cccnc2Cl)C1 , report its IC50.
531

---

# tested.target: Fatty-acid amide hydrolase 1 (Homo sapiens)
# Sequence (O00519 whole entry): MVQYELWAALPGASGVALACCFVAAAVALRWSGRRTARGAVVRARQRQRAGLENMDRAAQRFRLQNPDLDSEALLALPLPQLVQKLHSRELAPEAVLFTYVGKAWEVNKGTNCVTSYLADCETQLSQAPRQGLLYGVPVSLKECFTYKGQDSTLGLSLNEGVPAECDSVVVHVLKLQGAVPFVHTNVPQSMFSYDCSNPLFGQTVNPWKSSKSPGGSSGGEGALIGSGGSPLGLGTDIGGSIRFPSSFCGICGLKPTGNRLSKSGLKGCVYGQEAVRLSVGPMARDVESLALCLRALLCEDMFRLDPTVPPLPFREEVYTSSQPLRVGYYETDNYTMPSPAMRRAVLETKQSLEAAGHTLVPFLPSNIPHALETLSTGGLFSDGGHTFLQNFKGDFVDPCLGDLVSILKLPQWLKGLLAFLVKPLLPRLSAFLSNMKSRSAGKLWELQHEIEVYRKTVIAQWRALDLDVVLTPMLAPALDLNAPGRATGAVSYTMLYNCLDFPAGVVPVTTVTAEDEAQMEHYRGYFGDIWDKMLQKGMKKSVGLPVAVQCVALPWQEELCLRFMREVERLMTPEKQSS
# test.name: Inhibition of human FAAH incubated 3 hrs prior to addition of arachidonyl-amino-methyl-coumarin amide
parameter.measured: pIC50
The read-out pIC50 is expressed as -log10 of concentration in moles per litre.

>  <compound>
O=C(N1CCCCC1)N1CC(O[C@@H](c2ccc(Cl)cc2)c2cccnc2Cl)C1

>  <pIC50>
7.11

$$$$

Consider now this further compound.
Quick one: pIC50 for O=C(N1CCCCC1)N1CC(OC(c2ccc(Cl)cc2)c2cccnc2Cl)C1 (racemic) ?
6.73
